Consider the following binders and their measured DTm (sample Tm - control Tm) readings.
molecular target: Thrombin digested soluble HLA-DRB1*15:01 (CLIP0 placeholder construct) (human); test: differential scanning fluorometry after peptide exchange (Sypro orange)
# output: bare number, no unit

Worked cases, DTm (sample Tm - control Tm) given:
{"binder": "PPIDGYPNHPCFEPE (modifications not checked) [M230]", "measurement_type": "DTm (sample Tm - control Tm)", "observed": 21.4}
{"binder": "LLRPGQIVAFDSTAQ (modifications not checked) [M248]", "measurement_type": "DTm (sample Tm - control Tm)", "observed": 5.6}
{"binder": "PQLRQWWAQGADPLA (modifications not checked) [M247]", "measurement_type": "DTm (sample Tm - control Tm)", "observed": 20.1}
{"binder": "ASLRSWPSTWAPWAS (modifications not checked) [M371]", "measurement_type": "DTm (sample Tm - control Tm)", "observed": 19.9}

Consider now this further binder.
Give DTm (sample Tm - control Tm) for PQILPYPAPEEAQEN (modifications not checked) [M231]
15.6
